Each record here notes measured hGluc-R EC50 (pM), cAMP.
Target: human glucagon receptor (human, UniProt P47871 26-477)
Sequence (P47871 26-477): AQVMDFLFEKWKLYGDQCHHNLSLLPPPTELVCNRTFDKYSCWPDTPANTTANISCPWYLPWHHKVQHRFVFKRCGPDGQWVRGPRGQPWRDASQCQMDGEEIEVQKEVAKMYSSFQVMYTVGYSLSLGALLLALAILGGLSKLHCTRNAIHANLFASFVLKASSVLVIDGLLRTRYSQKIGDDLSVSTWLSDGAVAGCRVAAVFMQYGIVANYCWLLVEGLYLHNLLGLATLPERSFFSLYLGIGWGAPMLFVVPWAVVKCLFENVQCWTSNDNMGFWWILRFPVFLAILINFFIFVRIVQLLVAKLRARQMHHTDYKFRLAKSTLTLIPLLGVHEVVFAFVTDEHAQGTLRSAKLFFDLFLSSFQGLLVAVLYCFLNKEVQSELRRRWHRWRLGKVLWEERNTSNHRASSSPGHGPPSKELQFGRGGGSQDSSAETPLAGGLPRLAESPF
Assay: cell-based or functional assay
Starred links: 1 amine or outer side, 2 acyl side, 3 side chain; linkers in the order of their positions; H or OH if unused. Non-standard residues stand in square brackets, D forms with d. Groups on a side chain read outwards from the residue. No end group written: not given here. *: point of attachment. C18 diacid = O=C(O)CCCCCCCCCCCCCCCCC(=O)*; γGlu = O=C(O)[C@H](CCC(=O)[*:2])N[*:1]; αMeF = C[C@](N)(Cc1ccccc1)C(=O)O; AEEA = NCCOCCOCC(=O)O; Aib = CC(C)(N)C(=O)O
Write the value in pM as a bare number.

As a guide, the following entries are already answered.
H[Aib]HGS[αMeF]TSDVSK[αMeF]LDSRAAK([AEEA-γGlu-AEEA-C18 diacid])D[αMeF]VQ[Aib]IANT-NH2 [Peptide 259] : 34.8
H[Aib]QGTFTSDVSK[αMeF]LDSRAAK([AEEA-AEEA-γGlu-C18 diacid])DFVQWIANT-NH2 (not fully specified) [Peptide 318] : 12000

Exercise: Item H[Aib]HGS[αMeF]TSDVSKYLDSRAAK([AEEA-AEEA-γGlu-C18 diacid])D[αMeF]VQ[Aib]IANT-NH2 (also: F6: αMePhe per table, X13: αMePhe, Y per table) [Peptide 286] has what recorded hGluc-R EC50 (pM), cAMP?
Key: 53
